# HC50 listing for each entry below
# Test system: human red blood cells (hRBCs)
# condition: red cells of human, 2 h
Peptide text beside a SMILES is read from it.
Report as a plain number; the unit µg/mL is understood.

Examples with their reported HC50 follow.
N=C(N)NCCC[C@@H]1NC(=O)[C@H](CCCNC(=N)N)NC(=O)[C@H](Cc2c[nH]c3ccccc23)NC(=O)[C@H](Cc2c[nH]c3ccccc23)NC(=O)[C@H](Cc2c[nH]c3ccccc23)NC(=O)[C@H](Cc2c[nH]c3ccccc23)NC(=O)[C@H](CCCNC(=N)N)NC1=O [3b, [R3W4]] (cyclo(RRRWWWW); ring closure inferred) ... 105
N=C(N)NCCC[C@@H]1NC(=O)[C@H](CCCNC(=N)N)NC(=O)[C@H](Cc2c[nH]c3ccccc23)NC(=O)[C@H](Cc2c[nH]c3ccccc23)NC(=O)[C@H](Cc2c[nH]c3ccccc23)NC(=O)[C@H](Cc2c[nH]c3ccccc23)NC1=O [2b, [R2W4]] (cyclo(RRWWWW); ring closure inferred) ... 85
N=C(N)NCCC[C@@H]1NC(=O)[C@H](CCCNC(=N)N)NC(=O)[C@H](CCCNC(=N)N)NC(=O)[C@H](CCCNC(=N)N)NC(=O)[C@H](Cc2c[nH]c3ccccc23)NC(=O)[C@H](Cc2c[nH]c3ccccc23)NC(=O)[C@H](Cc2c[nH]c3ccccc23)NC(=O)[C@H](Cc2c[nH]c3ccccc23)NC(=O)[C@H](CCCNC(=N)N)NC(=O)[C@H](CCCNC(=N)N)NC1=O [6a, [R6W4]] (cyclo(RRRRRRWWWW)) ... 265
N=C(N)NCCC[C@@H]1NC(=O)[C@H](CCCNC(=N)N)NC(=O)[C@H](Cc2c[nH]c3ccccc23)NC(=O)[C@H](Cc2c[nH]c3ccccc23)NC(=O)[C@H](Cc2c[nH]c3ccccc23)NC(=O)[C@H](CCCNC(=N)N)NC1=O [3a, [R3W3]] (cyclo(WWWRRR); ring closure inferred) ... 155
N=C(N)NCCC[C@@H]1NC(=O)[C@H](CCCNC(=N)N)NC(=O)[C@H](Cc2c[nH]c3ccccc23)NC(=O)[C@H](Cc2c[nH]c3ccccc23)NC(=O)[C@H](Cc2c[nH]c3ccccc23)NC(=O)[C@H](Cc2c[nH]c3ccccc23)NC(=O)[C@H](Cc2c[nH]c3ccccc23)NC(=O)[C@H](Cc2c[nH]c3ccccc23)NC(=O)[C@H](Cc2c[nH]c3ccccc23)NC(=O)[C@H](CCCNC(=N)N)NC1=O [3e, [R3W7]] (cyclo(RRRWWWWWWW)) ... 60

Input line: Which measured HC50 value corresponds to N=C(N)NCCC[C@@H]1NC(=O)[C@H](CCCNC(=N)N)NC(=O)[C@H](CCCNC(=N)N)NC(=O)[C@H](CCCNC(=N)N)NC(=O)[C@H](Cc2c[nH]c3ccccc23)NC(=O)[C@H](Cc2c[nH]c3ccccc23)NC(=O)[C@H](Cc2c[nH]c3ccccc23)NC(=O)[C@H](Cc2c[nH]c3ccccc23)NC(=O)[C@H](Cc2c[nH]c3ccccc23)NC(=O)[C@H](CCCNC(=N)N)NC(=O)[C@H](CCCNC(=N)N)NC(=O)[C@H](CCCNC(=N)N)NC1=O [7b, [R7W5]] (cyclo(RRRRRRRWWWWW)) ?
Output line: 175
